Measurement target: Retinoic acid receptor RXR-alpha (Homo sapiens) (UniProt P19793)
Sequence (P19793 whole entry, looked up): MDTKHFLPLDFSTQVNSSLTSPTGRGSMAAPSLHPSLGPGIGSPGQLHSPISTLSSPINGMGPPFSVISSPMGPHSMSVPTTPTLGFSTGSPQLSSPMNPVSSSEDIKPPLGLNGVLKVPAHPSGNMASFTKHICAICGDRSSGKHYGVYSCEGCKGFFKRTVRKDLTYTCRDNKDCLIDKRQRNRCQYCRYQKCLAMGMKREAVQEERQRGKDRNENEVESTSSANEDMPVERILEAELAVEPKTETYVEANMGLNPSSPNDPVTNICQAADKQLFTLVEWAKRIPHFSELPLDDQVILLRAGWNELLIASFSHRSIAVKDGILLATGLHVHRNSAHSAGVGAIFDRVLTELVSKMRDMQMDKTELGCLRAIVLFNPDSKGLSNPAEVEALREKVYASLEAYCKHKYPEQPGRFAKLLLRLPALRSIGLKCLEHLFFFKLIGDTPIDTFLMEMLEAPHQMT
Experiment summary: qHTS assay for small molecule antagonists of retinoid X receptor alpha signaling (AID 588546);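 note: cells stimulated with 9-cis-retinoic acid as agonist; % is set by controls: 0 for no effect and ±100 for the full control effect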
Condition context: HEK293T RXRa-UAS-bla, beta-lactamase ratio, antagonist mode
Results filed as inconclusive are left out. Activity calls are given as the source filed them. Calls come from the whole dose curve; as a rule, active = well fitted inhibition curve with a large enough effect in the signal ratio, with a control signal flat (not every such curve was filed as active); inconclusive = small, poorly fitted or top-dose-only effect, or effect the other way, or a change in a side signal; inactive = no such curve, though single readings can be large or run the other way; the % refers to the signal ratio.
Would you kindly list max response for each of these molecules?

Q) # query: max response of entry ClC1C(Cl)C(Cl)C(Cl)C(Cl)C1Cl (stereo not drawn)
A) -6.12% (inactive) [middle of 4 runs]

Q) # query: max response of entry `O=C(O)C(Cl)(Cl)Cl`
A) -6.5% (inactive)

Q) # query: max response of entry ClCC1CO1 (stereo not drawn)
A) -1.88% (inactive)

Q) # query: max response of entry `O=C1C=CC(=O)C=C1`
A) -9.47% (inactive)

Q) # query: max response of entry `CCCCCl`
A) 21% (inactive)

Q) # query: max response of entry `C[C@H]1CCC[C@H](O)CCCCCc2cc(O)cc(O)c2C(=O)O1`
A) -34.3% (inactive)

Q) # query: max response of entry `O=C1CCO1`
A) 14.1% (inactive)

Q) # query: max response of entry COc1ccc2c(c1OC)C(=O)OC2C1c2cc3c(cc2CCN1C)OCO3 (stereo not drawn)
A) 20.7% (inactive)
